experiment summary: Volume of distribution at steady state in Wistar rat at 2 mg/kg, iv
Assay type: ADME, organism-based
Design: dose 2 mg/kg, route intravenous
protocol conditions: in vivo, read-out: Vdss
// Vd lookup, one value per entry
reported endpoint: Vd (L/kg)

>  <smiles data>
O=C(Cn1nc(C(F)(F)F)c2c1CCCC2)Nc1sc2c(c1C(=O)N[C@@H]1CCNC1)CCCC2

>  <recorded number>
0.5

$$$$
>  <smiles data>
CNCc1cn(CC(=O)Nc2sc3c(c2C(N)=O)CCCC3)nc1C(C)(C)C

>  <recorded number>
1.1

$$$$
>  <smiles data>
CNCc1cn(CC(=O)Nc2sc3c(c2C(N)=O)CCCC3)nc1C(F)(F)F

>  <recorded number>
2.4

$$$$
>  <smiles data>
CCNCc1cn(CC(=O)Nc2sc3c(c2C(N)=O)CCCC3)nc1C(F)(F)F

>  <recorded number>
0.6

$$$$
